Values were extracted from patent US20230250134A1.

For each entry below, report its pKd value.
# target_or_system: SARS-COV-2 Spike glycoprotein receptor binding domain (RBD) (SARS-CoV-2, UniProt P0DTC2 319-541)
Where no end group is shown, it is not given here.
Quick note: pKd values are minus log10 of concentrations in mol/L.

Query string: Entry LCB1_v1.5 (LCB1_v1.3 with N-link Glycosylation) (designed binder, also: N-linked glycosylation, site not given here) DKENILQKIYEIMKTLEQLGHAEASMNVSDLIYEFMKQGDERLLEEAERLLEEVER needs its pKd filled in; supply it.
Result string: 9.70

Query string: Return pKd (reported value) for this binder: LCB2-1 (designed binder) SDDEDSVRYLLYMAELRYEQGNPEKAKKILEMAEFIAKRNNNEELERLVREVKKRL
Result string: 9.70

Query string: Return pKd (reported value) for this binder: LCB1-24GS-LCB1 (designed binder) DKEWILQKIYEIMRLLDELGHAEASMRVSDLIYEFMKKGDERLLEEAERLLEEVERGGGSGGGSSGGSGGSSGGGSGGGSDKEWILQKIYEIMRLLDELGHAEASMRVSDLIYEFMKKGDERLLEEAERLLEEVER
Result string: 9.70

Query string: Answer with the recorded pKd for the binder listed here: AHB2-2 (designed binder) ELEEQVMHVLDQVSELAHELLHKLTGEELERAAYFNWWATEMMLELIKSDDEREIREIEEEARRILEHLEELARK
Result string: 9.70

Query string: Annotate the binder LCB1_v1.1-PRO-LCB3_v1.2 (1PRO3) (designed binder) DKENILQKIYEIMKTLDQLGHAEASMQVSDLIYEFMKQGDERLLEEAERLLEEVERAGSGGSGGSGGSPVPSTPPTPSPSTPPTPSPSPVPSTPPTPSPSTPPTPSPSPVPSTPPTPSPSTPPTPSPSASGNDDELHMQMTDLVYEALHFAKDEEIQKHVFQLFEKATKAYKNKDRQKLEKVVEELKELLERLLS with its measured pKd.
Result string: 9.70

Query string: Tell me pKd reported for LCB8-1 (designed binder) PIIELLREAKEKNDEFAISDALYLVNELLQRTGDPRLEEVLYLIWRALKEKDPRLLDRAIELFER
Result string: 9.70

Query string: Identify measured pKd associated with LCB3_v1.2-10GS-LCB1_v1.1 (LCB3-GS10-LCB1) (designed binder) NDDELHMQMTDLVYEALHFAKDEEIQKHVFQLFEKATKAYKNKDRQKLEKVVEELKELLERLLSGGSGGSGGSGDKENILQKIYEIMKTLDQLGHAEASMQVSDLIYEFMKQGDERLLEEAERLLEEVER
Result string: 9.70
